# test_details: In vitro proteolytic stability in human serum
# Assay type: in vitro ADME
# condition_label: 37°C, intact peptide at different time points estimated by RP-HPLC
No end group written: not given here.
readout_label: half-life (h)
Numbers only, in h.

# map each substance to its half-life
1. SQELHRLQTYPR-NH2 [R5]
2. LGRLSQELHRLQTY-NH2 [R14]

A.
[1, 1.5]

Measured values drawn from paper PMC6662706 for this set.
